- TEST SUMMARY: NCI Yeast Anticancer Drug Screen. Data for the sgs1 strain (AID 173)
- TEST CONDITIONS: S. cerevisiae sgs1 mutant, at 33.0 µM, stronger effect = higher value
This is part of a sample that, as a whole, favours compounds with a hit. Of some 79,000 tested, about 15% had one in any assay.
Response key: true means growth inhibition >= 60%; false means growth inhibition < 60%.

[in] Check this molecule for growth inhibition at or above 60%: "Cc1c2cc[n+](Cc3ccc(I)cc3)cc2c(C)c2c1[nH]c1ccccc12"
[out] true

[in] Next entry: "O=[N+]([O-])c1cc(F)c(F)cc1Sc1cc(F)c(F)cc1[N+](=O)[O-]"
[out] true

[in] Next entry: O=C(NNc1ccccc1)C(O)C(O)C(O)C(O)C(O)CO (stereo not drawn)
[out] true

[in] Next entry: "COc1ccc(/C=C/c2sc3ccccc3[n+]2CCCCI)cc1OC"
[out] true

[in] Next entry: "CS(=O)(=O)SCc1ccc([N+](=O)[O-])cc1"
[out] true

From here, focus on the item given below.
[in] Check this molecule for growth inhibition at or above 60%: "CC(C)(C)N=C(NO)c1ccccc1"
[out] false
